target: Olfr740 (Mus musculus, UniProt E9PV79); test: Indole antagonist dose-response, cAMP HTRF in HEK293T, vs indole EC80; type: cell-based; conditions: Table 22, first listing; vs indole EC80; read-out: Olfr740 IC50
Sequence (E9PV79 entry or part of it): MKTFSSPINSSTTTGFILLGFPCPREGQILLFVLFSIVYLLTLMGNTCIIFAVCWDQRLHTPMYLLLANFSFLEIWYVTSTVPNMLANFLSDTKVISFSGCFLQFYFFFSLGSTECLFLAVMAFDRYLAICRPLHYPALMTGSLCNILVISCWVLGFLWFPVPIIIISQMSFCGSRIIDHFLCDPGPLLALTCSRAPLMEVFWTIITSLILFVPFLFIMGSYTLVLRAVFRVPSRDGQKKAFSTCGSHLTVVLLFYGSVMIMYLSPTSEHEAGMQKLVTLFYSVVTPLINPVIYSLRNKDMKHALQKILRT
measurement-type: pIC50
Remember, pIC50 is on a log scale: it is -log10 of the molar concentration.

Tested system Olfr740 (Mus musculus, UniProt E9PV79); pIC50 recorded for 6(8)-ISOPROPYLQUINOLINE [isopropyl quinoline] was 4.39

###

molecular target: Olfr742 (Mus musculus); assay: Indole antagonist dose-response, cAMP HTRF in HEK293T, vs indole EC80; format: cell-based; conditions: Table 22, first listing; vs indole EC80; read-out: Olfr742 IC50
Sequence (A2RTP5 entry or part of it): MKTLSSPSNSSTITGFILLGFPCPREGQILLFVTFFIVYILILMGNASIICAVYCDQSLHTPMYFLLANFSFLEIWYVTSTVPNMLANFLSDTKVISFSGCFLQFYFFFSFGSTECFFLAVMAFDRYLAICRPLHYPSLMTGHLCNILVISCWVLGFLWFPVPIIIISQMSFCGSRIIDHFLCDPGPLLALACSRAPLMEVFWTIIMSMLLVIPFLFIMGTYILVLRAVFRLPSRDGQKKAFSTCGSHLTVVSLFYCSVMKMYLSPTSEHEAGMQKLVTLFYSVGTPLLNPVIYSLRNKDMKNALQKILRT
measurement-type: IC50 (µM)
Response body: numeric value in µM, unit text excluded.

Tested system Olfr742 (Mus musculus); IC50 recorded for 6(8)-ISOPROPYLQUINOLINE [isopropyl quinoline] was 86.6

###

target: Olfr742 (Mus musculus); test: Indole antagonist dose-response, cAMP HTRF in HEK293T, vs indole EC80; format: cell-based; details: HEK-293T, Table 22, first listing; vs indole EC80; read-out: Olfr742 % Inhibition
Consider the following compounds; for each one, report its Emax.
A complete answer gives the number followed by the unit.

# compound Cc1ccc(CC(C)C=O)cc1 (stereo not drawn) ; its Emax = 37.2%

# compound C=C1CC[C@H]2O[C@]2(C)CC[C@@H]2[C@@H]1CC2(C)C ; its Emax = 63%

# compound c1nc2c(o1)CCCCCCCCCC2 ; its Emax = 59.7%

# compound C/C=C/C(=O)C1C(C)=CCCC1(C)C (racemic) ; its Emax = 113%

# compound CC(CC=O)c1ccccc1 (stereo not drawn) ; its Emax = 113%

# compound CC1C(C)(C)C2=C(C(=O)CCC2)C1(C)C (stereo not drawn) ; its Emax = 120%

###

test system: geonol earthy/moss odor perception; experiment: Human sensory performance of test compounds with and without geonol; type: in vivo; details: Low Dilution Test Compound + Geonol (0.1%)
Rule: % Earthy/Moss Odor Remaining of 90% or more gives true (1); anything lower gives false (0).

Tell me whether % Earthy/Moss Odor Remaining is at least 90% here: C[C@@H]1CC[C@]2(O)C(C)(C)[C@H]3CC[C@@]2(C)[C@@H]1C3 true (1)

Tell me whether % Earthy/Moss Odor Remaining is at least 90% here: CC1=C[C@@H](C)[C@@H](C=O)CC1 false (0)

Tell me whether % Earthy/Moss Odor Remaining is at least 90% here: CCC(=CC[C@@H]1CC=C(C)C1(C)C)CO false (0)

Tell me whether % Earthy/Moss Odor Remaining is at least 90% here: CC(=O)OCCc1ccccc1 [phenyl ethyl acetate] true (1)

Tell me whether % Earthy/Moss Odor Remaining is at least 90% here: C[C@@H](CC=O)CCCC(C)(C)O [(3~{R})-7-hydroxy-3,7-dimethyloctanal] false (0)

###

Consider the following compounds; for each one, report its Olfr739 % Inhibition.
Target: Olfr739 (Mus musculus)
Sequence (E9Q1P0 entry or part of it): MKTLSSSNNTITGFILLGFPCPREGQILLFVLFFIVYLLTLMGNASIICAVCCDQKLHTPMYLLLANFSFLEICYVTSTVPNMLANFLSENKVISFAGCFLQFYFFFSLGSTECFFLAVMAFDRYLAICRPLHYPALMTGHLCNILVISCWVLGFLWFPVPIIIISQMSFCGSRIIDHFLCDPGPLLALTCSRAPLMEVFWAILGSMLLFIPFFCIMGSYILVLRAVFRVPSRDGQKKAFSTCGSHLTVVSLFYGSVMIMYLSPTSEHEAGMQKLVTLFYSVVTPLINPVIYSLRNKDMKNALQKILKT
Experiment: Indole antagonist dose-response, cAMP HTRF in HEK293T, vs indole EC80
Assay type: cell-based
Conditions: Table 22, second listing of the same compounds
Protocol: Functional dose-response experiments were performed to identify compounds capable of antagonizing indole-sensitive receptors previously identified (U.S. Pat. No. 9,914,760 B2). […] Odorant-induced activity was detected by measuring the cAMP increase in the cytosol using an HTRF based kit (CisBio, cAMP dynamic 2 kit, cat. 62AM4PEJ). […]
A complete answer gives the number followed by the unit.

# compound C=C1CC[C@H]2O[C@]2(C)CC[C@@H]2[C@@H]1CC2(C)C ; its Olfr739 % Inhibition = 55.20%

# compound CC(C)(C)C1CCC(=O)CC1 ; its Olfr739 % Inhibition = 148.19%

# compound c1nc2c(o1)CCCCCCCCCC2 ; its Olfr739 % Inhibition = 38.37%

# compound CC1(C)CCCC2(C)CC(=O)CCC12 (racemic) ; its Olfr739 % Inhibition = 107.89%
